Ref: ChEMBL document CHEMBL4265870

Reported Activity values for a set of compounds
System: Mus musculus
Test: Toxicity in mouse EAC cells implanted Swiss mouse assessed as hemoglobin level at 0.5 mg/mouse dosed for 9 days starting 1 day after tumor cell implantation (reference value: 8.15 g/dl)
Type: organism-based
Settings: in vivo

{"compound": "CC1=NN(Cc2nc3ccccc3[nH]2)C(=O)C1", "Activity [g/dL]": 11.47}
{"compound": "O=c1[nH]cc(F)c(=O)[nH]1 [FLUOROURACIL]", "Activity [g/dL]": 12.96}
{"compound": "O=C1c2ccccc2C(=O)N1NCc1nc2ccccc2[nH]1", "Activity [g/dL]": 13.21}
{"compound": "O=[N+]([O-])c1ccc2[nH]c(CN3CCN(c4ccc(F)cc4)CC3)nc2c1", "Activity [g/dL]": 13.15}
{"compound": "CCOC(=O)c1c(NCc2nc3ccccc3[nH]2)sc2c1CCCCC2", "Activity [g/dL]": 12.13}

====

Tested on: HepG2
Experiment: Cytotoxicity in human HepG2 cells assessed as reduction in cell viability by MTT assay
Assay type: functional, cell-based

{"structure": "O=[N+]([O-])c1ccc2ncccc2c1NCc1nc2ccccc2[nH]1", "IC50": "259 µM"}
{"structure": "COc1ccc2c(c1)CCC/C2=N\\NCc1nc2ccccc2[nH]1", "IC50": "80 µM"}
{"structure": "Fc1ccc2nc(NCc3nc4ccccc4[nH]3)sc2c1", "IC50": "233 µM"}
{"structure": "CC1=NN(Cc2nc3cc([N+](=O)[O-])ccc3[nH]2)C(=O)C1", "IC50": "265 µM"}
{"structure": "Cc1c(NCc2nc3ccccc3[nH]2)c(=O)n(-c2ccccc2)n1C", "IC50": "63 µM"}
{"structure": "NS(=O)(=O)c1nnc(NCc2nc3cc([N+](=O)[O-])ccc3[nH]2)s1", "IC50": "184 µM"}

====

Test system: HepG2
Assay: Cytotoxicity in human HepG2 cells assessed as reduction in cell viability by MTT assay
Assay type: functional, cell-based
pIC50: −log10 of the molar value.
# pIC50 listing for each entry below
measurement type: pIC50

{"structure": "O=[N+]([O-])c1ccc2[nH]c(CNc3c([N+](=O)[O-])ccc4ncccc34)nc2c1", "system": "HepG2", "measurement": 3.58}
{"structure": "O=[N+]([O-])c1ccc2[nH]c(CNc3nc4ccc(F)cc4s3)nc2c1", "system": "HepG2", "measurement": 3.58}
{"structure": "O=C1c2ccccc2C(=O)N1NCc1nc2ccccc2[nH]1", "system": "HepG2", "measurement": 4.49}
{"structure": "Cc1c(NCc2nc3cc([N+](=O)[O-])ccc3[nH]2)c(=O)n(-c2ccccc2)n1C", "system": "HepG2", "measurement": 4.03}
{"structure": "CC1=NN(Cc2nc3ccccc3[nH]2)C(=O)C1", "system": "HepG2", "measurement": 4.27}

====

System: Mus musculus
Test: Toxicity in mouse EAC cells implanted Swiss mouse assessed as WBC count at 0.5 mg/mouse dosed for 9 days starting 1 day after tumor cell implantation (reference value: 23.96 10^3/mm3))
Assay type: organism-based
Settings: in vivo

{"molecule": "O=C1c2ccccc2C(=O)N1NCc1nc2ccccc2[nH]1", "Activity, ×10³ /mm3": 7.11}
{"molecule": "CCOC(=O)c1c(NCc2nc3ccccc3[nH]2)sc2c1CCCCC2", "Activity, ×10³ /mm3": 9.11}
{"molecule": "CC1=NN(Cc2nc3ccccc3[nH]2)C(=O)C1", "Activity, ×10³ /mm3": 11.26}
{"molecule": "O=[N+]([O-])c1ccc2[nH]c(CN3CCN(c4ccc(F)cc4)CC3)nc2c1", "Activity, ×10³ /mm3": 7.34}
{"molecule": "O=c1[nH]cc(F)c(=O)[nH]1 [FLUOROURACIL]", "Activity, ×10³ /mm3": 8.86}
